Where these numbers come from: patent US9944654B2

Here, each record is paired with measured pIC50 data.
- test-system: S. aureus DnaE (DNA polymerase III α-subunit homolog from Staphylococcus aureus) (Staphylococcus aureus, UniProt Q5HF71)
- Construct: SaDnaE (S. aureus DnaE residues 1-1065); 6xHis (N); made in house; host or cells: E. coli BL21-AI
- Sequence (Q5HF71 1-1065): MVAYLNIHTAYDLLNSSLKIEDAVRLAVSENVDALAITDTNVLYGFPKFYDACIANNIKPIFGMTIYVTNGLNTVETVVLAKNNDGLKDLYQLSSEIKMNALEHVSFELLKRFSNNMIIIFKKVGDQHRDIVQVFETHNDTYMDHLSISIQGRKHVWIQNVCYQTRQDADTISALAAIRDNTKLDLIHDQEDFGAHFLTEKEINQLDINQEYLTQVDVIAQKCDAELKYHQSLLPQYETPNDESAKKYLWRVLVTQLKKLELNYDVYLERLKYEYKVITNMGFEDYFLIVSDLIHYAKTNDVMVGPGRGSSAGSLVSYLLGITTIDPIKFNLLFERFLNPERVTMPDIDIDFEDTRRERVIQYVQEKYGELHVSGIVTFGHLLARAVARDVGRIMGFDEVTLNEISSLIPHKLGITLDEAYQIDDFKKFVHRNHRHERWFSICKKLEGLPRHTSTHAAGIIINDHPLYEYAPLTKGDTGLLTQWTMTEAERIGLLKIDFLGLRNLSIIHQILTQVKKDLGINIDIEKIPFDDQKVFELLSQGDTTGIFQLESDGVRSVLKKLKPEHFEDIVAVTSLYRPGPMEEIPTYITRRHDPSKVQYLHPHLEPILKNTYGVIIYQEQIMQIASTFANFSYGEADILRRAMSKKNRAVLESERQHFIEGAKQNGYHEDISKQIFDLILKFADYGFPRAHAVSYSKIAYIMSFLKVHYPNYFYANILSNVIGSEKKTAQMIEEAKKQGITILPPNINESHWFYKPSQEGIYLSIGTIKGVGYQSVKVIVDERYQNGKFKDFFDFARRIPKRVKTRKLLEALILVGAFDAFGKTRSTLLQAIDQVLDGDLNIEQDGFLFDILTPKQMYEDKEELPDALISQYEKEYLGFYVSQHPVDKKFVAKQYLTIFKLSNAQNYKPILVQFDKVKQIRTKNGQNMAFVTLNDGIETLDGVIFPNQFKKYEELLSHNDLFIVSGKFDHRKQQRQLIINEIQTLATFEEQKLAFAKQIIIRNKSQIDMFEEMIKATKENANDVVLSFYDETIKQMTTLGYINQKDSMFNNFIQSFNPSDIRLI
- measurement-description: biochemical
- Format: biochemical
- condition: S. aureus DnaE IC50
# pIC50 = -log10(concentration in molar units)

Reference set (2 entries):
CO[C@H]1C[C@H]2C=CC3C4[C@H](O)[C@@H](C)[C@@H](OC(=O)c5ccc(OC(C)=O)n5O)[C@@H]3O[C@]42/C(C)=C/[C@@H](C)[C@@H]([C@@H](C)O)OC1=O ... 6.27
CO[C@H]1CC2C=C[C@H]3[C@H]4O[C@]2(/C(C)=C/[C@@H](C)[C@@H](C(C)O)OC1=O)[C@@H]3[C@H](O)[C@@H](C)[C@H]4OC(=O)c1[nH]c(I)c(I)c1I (some centres unmarked) ... 5.35

Let us examine a further case.
Input line: Please report the measured pIC50 for CO[C@H]1C[C@H]2C=CC3C4[C@H](O)[C@@H](C)[C@@H](OC(=O)c5cc(NC(C)=O)c[nH]5)[C@@H]3O[C@]42/C(C)=C/[C@@H](C)[C@@H]([C@@H](C)O)OC1=O
Output line: 4.50

====

- test-system: E. coli DnaE (DNA polymerase III α-subunit from Escherichia coli) (Escherichia coli, UniProt P10443)
- Construct: EcDnaE (E. coli DnaE residues 1-1160); 6xHis (N); made in house; host or cells: E. coli BL21(DE3)
- Sequence (P10443 whole entry, the tested form may be a part): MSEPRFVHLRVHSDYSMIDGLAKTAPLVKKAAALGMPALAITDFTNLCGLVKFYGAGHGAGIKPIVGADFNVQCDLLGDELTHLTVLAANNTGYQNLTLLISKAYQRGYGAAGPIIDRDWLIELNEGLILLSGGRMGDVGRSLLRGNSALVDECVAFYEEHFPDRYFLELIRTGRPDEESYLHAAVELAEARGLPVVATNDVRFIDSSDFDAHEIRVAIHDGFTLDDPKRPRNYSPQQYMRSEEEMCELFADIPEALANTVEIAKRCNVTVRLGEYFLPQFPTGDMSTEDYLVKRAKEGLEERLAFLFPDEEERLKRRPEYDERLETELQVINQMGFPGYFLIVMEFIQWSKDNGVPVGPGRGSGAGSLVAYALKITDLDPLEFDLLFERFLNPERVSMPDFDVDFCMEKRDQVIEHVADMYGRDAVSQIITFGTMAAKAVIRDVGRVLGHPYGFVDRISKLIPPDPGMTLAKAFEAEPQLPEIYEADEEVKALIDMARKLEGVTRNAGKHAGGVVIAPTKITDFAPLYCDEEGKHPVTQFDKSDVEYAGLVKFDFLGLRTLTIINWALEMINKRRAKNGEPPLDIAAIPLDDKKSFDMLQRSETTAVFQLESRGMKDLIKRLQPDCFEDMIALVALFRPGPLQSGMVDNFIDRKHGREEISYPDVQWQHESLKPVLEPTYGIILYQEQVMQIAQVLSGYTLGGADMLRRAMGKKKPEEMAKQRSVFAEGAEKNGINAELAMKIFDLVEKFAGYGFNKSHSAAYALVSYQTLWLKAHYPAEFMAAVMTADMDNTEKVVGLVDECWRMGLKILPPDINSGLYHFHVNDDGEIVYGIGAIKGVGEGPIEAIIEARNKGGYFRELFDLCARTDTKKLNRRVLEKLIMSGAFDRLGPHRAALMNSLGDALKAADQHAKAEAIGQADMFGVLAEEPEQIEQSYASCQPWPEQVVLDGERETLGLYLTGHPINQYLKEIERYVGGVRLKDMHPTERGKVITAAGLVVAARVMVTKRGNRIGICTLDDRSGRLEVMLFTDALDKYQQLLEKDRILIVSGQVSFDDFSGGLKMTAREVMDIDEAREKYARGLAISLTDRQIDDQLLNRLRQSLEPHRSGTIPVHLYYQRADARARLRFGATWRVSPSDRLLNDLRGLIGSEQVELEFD
- measurement-description: In vitro DnaE single enzyme assay (E. coli)
- Type: biochemical
- condition: read-out: E. coli DnaE IC50 (converted)
Here, each record is paired with measured IC50 data.
Numbers only here, please. The scale is µM.

CO[C@H]1C[C@H]2C=C[C@H]3[C@H]4O[C@]2(/C(C)=C/[C@@H](C)[C@@H]([C@@H](C)OC(=O)NCC(=O)O)OC1=O)[C@@H]3[C@H](O)[C@@H](C)[C@H]4OC(=O)c1ccc[nH]1 ... 114
CO[C@H]1C[C@H]2C=CC3C4[C@H](O)[C@@H](C)[C@@H](OC(=O)c5ccc[nH]5)[C@@H]3O[C@]42/C(C)=C/[C@@H](C)[C@@H]([C@@H](C)OC(=O)C(=O)OCc2ccncc2)OC1=O.O=C(O)C(F)(F)F ... 6.31
C/C1=C\[C@@H](C)[C@@H](C(C)O)OC(=O)C(O)CC2C=C[C@H]3[C@H]4O[C@@]12[C@@H]3[C@H](O)[C@@H](C)[C@H]4OC(=O)c1ccc[nH]1 (stereo partly drawn) ... 21.9

Input line: Please report the measured IC50 for CO[C@H]1C[C@H]2C=C[C@H]3[C@H]4O[C@]2(/C(C)=C/[C@@H](C)[C@@H]([C@@H](C)O)OC1=O)[C@@H]3[C@H](O)[C@@H](C)[C@H]4OC(=O)c1cccn1C(C)=O
Output line: 11.7

Input line: Please report the measured IC50 for CO[C@H]1CC2C=C[C@H]3[C@H]4O[C@]2(/C(C)=C/[C@@H](C)[C@@H](C(C)O)OC1=O)[C@@H]3[C@H](O)[C@@H](C)[C@H]4OC(=O)c1[nH]c(I)c(I)c1I (stereo partly drawn)
Output line: 44.8

Input line: Please report the measured IC50 for CO[C@H]1C[C@H]2C=CC3C4[C@H](O)[C@@H](C)[C@@H](OC(=O)c5ccc[nH]5)[C@@H]3O[C@]42/C(C)=C/[C@@H](C)[C@@H]([C@@H](C)OC(=O)Nc2nnn[nH]2)OC1=O
Output line: 16

Input line: Please report the measured IC50 for CO[C@H]1C[C@H]2C=C[C@H]3[C@H]4O[C@]2(/C(C)=C/[C@@H](C)[C@@H](C(C)=O)OC1=O)[C@@H]3C(=O)[C@@H](C)[C@H]4OC(=O)c1ccc[nH]1
Output line: 176

Input line: Please report the measured IC50 for C=CC[C@@H]1OC(=O)[C@@H](OC)C[C@H]2C=C[C@H]3[C@H]4O[C@]2(/C(C)=C/[C@H]1C)[C@@H]3[C@H](O)[C@@H](C)[C@H]4OC(=O)c1ccc[nH]1
Output line: 60.6

Input line: Please report the measured IC50 for CO[C@H]1C[C@H]2C=C[C@H]3[C@H]4O[C@]2(/C(C)=C/[C@@H](C)[C@@H]([C@@H](C)OC(=O)NCCc2ccccc2)OC1=O)[C@@H]3[C@H](O)[C@@H](C)[C@H]4OC(=O)c1ccc[nH]1
Output line: 45.3

Input line: Please report the measured IC50 for CO[C@H]1CC2C=C[C@H]3[C@H]4O[C@]2(/C(C)=C/[C@@H](C)[C@@H]([C@@H](C)OC(=O)NN)OC1=O)[C@@H]3[C@H](O)[C@@H](C)[C@H]4OC(=O)c1ccc[nH]1 (stereo partly drawn)
Output line: 105

Input line: Please report the measured IC50 for CO[C@H]1C[C@H]2C=CC3C4[C@H](O)[C@@H](C)[C@@H](OC(=O)c5ccc[nH]5)[C@@H]3O[C@]42/C(C)=C/[C@@H](C)[C@@H]([C@@H](C)OS(=O)(=O)O)OC1=O
Output line: 20.1

====

- test-system: S. aureus DnaE (DNA polymerase III α-subunit homolog from Staphylococcus aureus) (Staphylococcus aureus)
- Construct: SaDnaE (S. aureus DnaE residues 1-1065); 6xHis (N); made in house; host or cells: E. coli BL21-AI
- Sequence (Q5HF71 1-1065): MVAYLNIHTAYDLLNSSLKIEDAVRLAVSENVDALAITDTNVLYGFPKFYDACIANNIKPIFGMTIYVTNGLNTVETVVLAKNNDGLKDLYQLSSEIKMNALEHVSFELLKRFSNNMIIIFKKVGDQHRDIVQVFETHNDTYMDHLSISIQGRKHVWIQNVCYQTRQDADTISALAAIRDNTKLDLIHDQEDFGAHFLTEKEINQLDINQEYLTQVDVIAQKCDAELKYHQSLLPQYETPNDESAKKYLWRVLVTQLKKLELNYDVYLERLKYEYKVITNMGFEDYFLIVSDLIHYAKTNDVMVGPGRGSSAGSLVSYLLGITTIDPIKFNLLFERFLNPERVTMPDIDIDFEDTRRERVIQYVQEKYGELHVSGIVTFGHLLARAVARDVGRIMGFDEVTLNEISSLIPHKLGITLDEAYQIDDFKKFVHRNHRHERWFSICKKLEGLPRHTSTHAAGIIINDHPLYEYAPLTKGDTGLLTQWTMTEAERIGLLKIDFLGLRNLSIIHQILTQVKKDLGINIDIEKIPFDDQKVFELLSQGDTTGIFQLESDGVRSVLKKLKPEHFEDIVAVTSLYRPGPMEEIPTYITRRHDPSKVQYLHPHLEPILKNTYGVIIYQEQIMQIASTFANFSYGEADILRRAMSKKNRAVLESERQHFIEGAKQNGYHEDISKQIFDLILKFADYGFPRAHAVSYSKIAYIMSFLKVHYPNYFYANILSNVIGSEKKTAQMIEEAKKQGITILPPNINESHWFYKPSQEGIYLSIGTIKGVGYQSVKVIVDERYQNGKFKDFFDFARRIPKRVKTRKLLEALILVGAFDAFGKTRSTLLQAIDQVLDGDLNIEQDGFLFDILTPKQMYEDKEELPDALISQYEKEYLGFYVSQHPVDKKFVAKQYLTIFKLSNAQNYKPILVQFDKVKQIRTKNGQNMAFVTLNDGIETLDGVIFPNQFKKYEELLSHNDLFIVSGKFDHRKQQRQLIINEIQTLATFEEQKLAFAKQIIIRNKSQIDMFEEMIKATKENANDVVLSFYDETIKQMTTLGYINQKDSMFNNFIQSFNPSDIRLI
- measurement-description: biochemical
- Assay type: biochemical
- condition: S. aureus DnaE IC50
quantity-measured: pIC50
# pIC50 = -log10(concentration in molar units)

Input line: Please report the measured pIC50 for CO[C@H]1C[C@H]2C=C[C@H]3[C@H]4O[C@]2(/C(C)=C/[C@@H](C)[C@@H]([C@@H](C)OC(=O)NCc2ccncc2)OC1=O)[C@@H]3[C@H](O)[C@@H](C)[C@H]4OC(=O)c1ccc[nH]1
Output line: 7.53

Input line: Please report the measured pIC50 for CO[C@H]1C[C@H]2C=C[C@H]3[C@H]4O[C@]2(/C(C)=C/[C@@H](C)[C@@H]([C@@H](C)O)OC1=O)[C@@H]3[C@H](O)[C@@H](C)[C@H]4OC(N)=O
Output line: 7.63
